Tested on: MCF7
Test: NCI tumour cell line growth inhibition, 48 h
Active and inactive are the calls of the source. No stated cut-off is given here; in the data, active = GI50 up to about 1.1 µM and inactive = higher.
Classes used: active, inactive

molecule=O=C1Nc2cccc(Cl)c2/C1=C\c1cccnc1 measurement_target=MCF7 assigned_label=inactive
molecule=O=Cc1c(Br)[nH]c2ccccc12 measurement_target=MCF7 assigned_label=inactive
molecule=O=C(Cn1cc(Br)c(=O)[nH]c1=O)c1ccc(-c2ccccc2)cc1 measurement_target=MCF7 assigned_label=inactive
molecule=Cc1c2c(n(CCc3ccccc3)c1C)N(C)N=C(C#N)S2(=O)=O measurement_target=MCF7 assigned_label=inactive
molecule=CN(C)CCCCN1c2ccccc2Sc2ccc(N=[N+]=[N-])cc21 measurement_target=MCF7 assigned_label=inactive
molecule="CC(=O)OC[C@]1(C(=O)C(O)c2ccoc2)[C@H](C)CC[C@@]23COC(=O)C2=CCC[C@@H]31 (stereo not given in full)" measurement_target=MCF7 assigned_label=inactive
molecule=CC(=O)c1sc2c(c1OC(=O)c1ccc(Cl)cc1Cl)c(=O)n(-c1ccccc1)c(=S)n2-c1ccccc1 measurement_target=MCF7 assigned_label=inactive
molecule="CC1(C)N=C(C2CCCN2C(=O)OCc2ccccc2)OC1=O (stereo not given)" measurement_target=MCF7 assigned_label=inactive
molecule="Cc1cc(C)c(N[S+]([O-])c2cccc([N+](=O)[O-])c2)c(C)c1 (stereo not given)" measurement_target=MCF7 assigned_label=inactive
molecule=Cc1cccc(Nc2cn(COCc3ccccc3)c(=O)[nH]c2=O)c1 measurement_target=MCF7 assigned_label=inactive
molecule=CCC/C(Cl)=N/OC(=O)Nc1cccc(F)c1 measurement_target=MCF7 assigned_label=inactive
molecule="CCCC1CC(=O)NC(=O)C1C(=O)OC(C)(C)C (stereo not given)" measurement_target=MCF7 assigned_label=inactive
molecule="CCCCCCCCCC[C@@H](O)[C@H]1CC[C@@H]([C@H]2CC[C@H]([C@H](O)CCCCCCCCCC[C@@H]3CC(CC(C)=O)C(=O)O3)O2)O1 (stereo not given in full)" measurement_target=MCF7 assigned_label=inactive
molecule=N=C(N)NS(=O)(=O)c1ccc(Nc2c3ccccc3nc3c(C(=O)NCCO)cccc23)cc1 measurement_target=MCF7 assigned_label=active
molecule="Cc1ccc2[nH]c3c(c2c1)C1CCC(C(C)(C)C)CC1C1C(=O)N(c2ccc(Oc4ccccc4)cc2)C(=O)C31 (stereo not given)" measurement_target=MCF7 assigned_label=inactive
molecule=O=C(CSCC(=O)N/N=C/c1cccs1)N/N=C/c1cccs1 measurement_target=MCF7 assigned_label=inactive
molecule="CCCCCCCCCCCCC(O)C1CCC(C(O)CCCCC(O)CCCCCC2CC(CC(C)=O)C(=O)O2)O1 (stereo not given)" measurement_target=MCF7 assigned_label=active
molecule=Cc1ccc(C(=O)N/N=C(\N=N\c2cccc([N+](=O)[O-])c2)c2ccc(N(CCC#N)CCC#N)cc2C)cc1 measurement_target=MCF7 assigned_label=inactive
molecule=COc1cc(/C=N/n2c(-c3ccccc3)n[nH]c2=O)cc(OC)c1OC measurement_target=MCF7 assigned_label=inactive
molecule=O=C(NCCCCCCCCCCCCNC(=O)Nc1cccc2ccccc12)Nc1cccc2ccccc12 measurement_target=MCF7 assigned_label=inactive

###

GI50 reference
Test system: PC-3
Test: NCI tumour cell line growth inhibition, 48 h
Active and inactive are the calls of the source. Cut-off read from the data, not from the text of the source: active = GI50 up to about 1.1 µM and inactive = higher.
Parameter: GI50

compound="CC1CC[C@@]2(OC1)OC1C[C@H]3[C@@H]4CC[C@H]5CC(OC6OC(CO)C(OC7OC(CO)C(O)C(O)C7OC7OC(CO)C(O)C(O)C7O)C(O)C6O)CCC5(C)[C@H]4CCC3(C)C1[C@@H]2C (some centres not stated)" value_observed="0.838 µM (active)"
compound=CN(C)NC1=NS(=O)(=O)c2cc3c(cc2S1)N(N(C)C)C(=O)c1cc2c(cc1N(N(C)C)C3=O)SC(NN(C)C)=NS2(=O)=O value_observed="> 10 µM (inactive)"
compound=O=c1c2cc(I)ccc2nc(-c2cccs2)n1Nc1ccccc1 value_observed="1.61 µM (inactive)"
compound="CCCCN1C(=O)C2Cc3c([nH]c4ccccc34)C(c3cccc(O)c3)N2C1=O (configuration not stated)" value_observed="18.5 µM (inactive)"
compound=O=C1Nc2cccc(Cl)c2/C1=C\c1cccnc1 value_observed="14.8 µM (inactive)"
compound=O=Cc1ccc(-c2ccc(-c3ccc(CO)s3)o2)s1 value_observed="28.3 µM (inactive)"
compound=O=c1[nH]cc(NCCCl)c(=O)[nH]1 value_observed="> 100 µM (inactive)"
compound="CCCCCCCCCCCCC/C=C/[C@H]1[C@@H](C(=O)OC)N1[S+]([O-])c1ccc(C)cc1 (some centres not stated)" value_observed="> 100 µM (inactive)"
compound="CC(=O)NC(CCCOC(C)=O)C(=O)NC(CCCOC(C)=O)C(=O)NC(CCCOC(C)=O)C(=O)NC(Cc1ccc([N+](=O)[O-])cc1)C(=O)NCC(=O)OCc1ccccc1 (configuration not stated)" value_observed="> 100 µM (inactive)"
compound="CCOC(=O)C1(C/C=C/CBr)Cc2ccccc2C1=O (configuration not stated)" value_observed="4.13 µM (inactive)"
compound=COc1cc(/C=N/n2c(-c3ccccc3)n[nH]c2=O)cc(OC)c1OC value_observed="2.81 µM (inactive)"
compound=CC(=N\N)/C(C)=N/N=C(C)/C(C)=N/N value_observed="> 100 µM (inactive)"

###

System: HOP-92
Test: NCI tumour cell line growth inhibition, 48 h
Activity calls are given as the source filed them. Cut-off read from the data, not from the text of the source: active = GI50 up to about 1.1 µM and inactive = higher.
Parameter: GI50

compound="CC1CC[C@@]2(OC1)OC1C[C@H]3[C@@H]4CC[C@H]5CC(OC6OC(CO)C(OC7OC(CO)C(O)C(O)C7OC7OC(CO)C(O)C(O)C7O)C(O)C6O)CCC5(C)[C@H]4CCC3(C)C1[C@@H]2C (some centres undefined)" value_observed="5.2 µM (inactive)"
compound=O=C1Nc2cccc(Cl)c2/C1=C\c1cccnc1 value_observed="27.7 µM (inactive)"
compound=O=C(NCCCCCCCCCCCCNC(=O)Nc1cccc2ccccc12)Nc1cccc2ccccc12 value_observed="12.1 µM (inactive)"
compound="Cc1ccccc1NC(=O)CC(=O)N1N=C(N2c3ccccc3Sc3ccccc32)CC1c1ccccc1 (centres undefined)" value_observed="> 100 µM (inactive)"

###

Tested on: HOP-92
Test: NCI tumour cell line growth inhibition, 48 h
Active and inactive are the calls of the source. No stated cut-off is given here; in the data, active = GI50 up to about 1.1 µM and inactive = higher.
GI50 reference
Parameter: GI50

molecule=N#C/C(=C1\OC(=N)C(c2ccc(Cl)cc2)=C1O)c1ccc(Cl)cc1 value_observed="17.9 µM (inactive)"
molecule=O=P(O)(OCC(O)O)OCC(O)O value_observed="> 100 µM (inactive)"
molecule="CC1(c2nc3ccccc3[nH]2)CCC(C(N)=O)C(C)(C)O1 (configuration not stated)" value_observed="> 100 µM (inactive)"
molecule=CN(C)NC1=NS(=O)(=O)c2cc3c(cc2S1)N(N(C)C)C(=O)c1cc2c(cc1N(N(C)C)C3=O)SC(NN(C)C)=NS2(=O)=O value_observed="> 10 µM (inactive)"
molecule="CC(=O)NC(CCCOC(C)=O)C(=O)NC(CCCOC(C)=O)C(=O)NC(CCCOC(C)=O)C(=O)NC(Cc1ccc([N+](=O)[O-])cc1)C(=O)NCC(=O)OCc1ccccc1 (configuration not stated)" value_observed="> 100 µM (inactive)"
molecule="CC(=O)OC[C@]1(C(=O)C(O)c2ccoc2)[C@H](C)CC[C@@]23COC(=O)C2=CCC[C@@H]31 (some centres not stated)" value_observed="> 10 µM (inactive)"
molecule=O=c1c2cc(I)ccc2nc(-c2cccs2)n1-c1ccc(O)cc1 value_observed="10.1 µM (inactive)"

###

System: TK-10
Test: NCI tumour cell line growth inhibition, 48 h
The source made the active and inactive calls. Rule as the data show it: active = GI50 up to about 1.1 µM and inactive = higher. Non-standard residues stand in square brackets, D forms with d. Residues, ends and D or L forms follow the SMILES beside them. ξ: configuration not given here. *: point of attachment. NMeF = CN[C@@H](Cc1ccccc1)C(=O)O; ξNMeV = CNC(C(=O)O)C(C)C; Boc = CC(C)(C)OC(=O)*; OBn = c1ccc(CO*)cc1
Parameter: GI50

compound="CCCCN(CCCC)C(=O)C(=O)C(C#N)c1ccc(C)cc1 (stereo not drawn)" measurement_target=TK-10 parameter=GI50 value_observed="> 100 µM (inactive)"
compound="C#CCSC(C=C=C)P(=O)(OC(C)C)OC(C)C (stereo not drawn)" measurement_target=TK-10 parameter=GI50 value_observed="43.2 µM (inactive)"
compound=COc1cc(/C=N/n2c(-c3ccccc3)n[nH]c2=O)cc(OC)c1OC measurement_target=TK-10 parameter=GI50 value_observed="4.17 µM (inactive)"
compound="C=CCC1(C)CCCN(Cc2ccccc2)C1=O (stereo not drawn)" measurement_target=TK-10 parameter=GI50 value_observed="> 10 µM (inactive)"
compound="Nc1nc2c(ncn2C2OC(CO)C(O)C2O)c(=O)o1 (stereo not drawn)" measurement_target=TK-10 parameter=GI50 value_observed="> 100 µM (inactive)"
compound=Cc1cc(C(C)(C)C)cc(Cc2cc(C(C)(C)C)cc(Cc3cc(C(C)(C)C)cc(C)c3O)c2O)c1O measurement_target=TK-10 parameter=GI50 value_observed="16.3 µM (inactive)"
compound="CC(C)C(C(=O)N1CCC[C@@H]1C(=O)OCc1ccccc1)N(C)C(=O)C(C(C)C)N(C)C(=O)[C@H](Cc1ccccc1)N(C)C(=O)[C@H](NC(=O)OC(C)(C)C)C(C)C (stereo partly drawn) (Boc-[dV][NMeF][ξNMeV][ξNMeV][dP]-OBn)" measurement_target=TK-10 parameter=GI50 value_observed="> 100 µM (inactive)"
compound=COc1ccc2nc3cc(Cl)ccc3c(NCCCNCc3cc(OC)c(OC)c(OC)c3)c2c1 measurement_target=TK-10 parameter=GI50 value_observed="1.73 µM (inactive)"
